Source: PubChem BioAssay (NCI)

# experiment-notes: NCI Yeast Anticancer Drug Screen. Data for the mec2-1 strain (AID 157)
# experimental-conditions: S. cerevisiae mec2-1 strain, at 3.7 µM, active compounds read high
Compounds without any hit were thinned out: in the full panel of roughly 79,000, 15% have a hit.
measured-parameter: growth inhibition (%)
Give the value, in units of %, as a plain number.

Fill in the blank: the reported growth inhibition of O=C1C=CC(=O)N1c1ccc2c(c1)Cc1cc(NC(=O)C(F)(F)F)ccc1-2 is ____. 26

Same question for O=C(O)C1CCCCC1c1c2ccc(=O)c(O)c-2oc2c(O)c(O)ccc12 (stereo not given) please. -32

Same question for Cc1cc(S(=O)(=O)/N=C(/NN)NNc2cccc(C(F)(F)F)n2)c(S)cc1Cl please. 2

Same question for Cc1ccc(-c2ccc(Nc3c4ccccc4nc4ccccc34)cc2)cn1 please. -25

Same question for CCOC(=O)C(NC(=O)c1ccccc1)(N1CCN(c2cc3c(cc2F)c(=O)c(C(=O)O)cn3C2CC2)CC1)C(F)(F)F (stereo not given) please. -2

Same question for O=CNc1ccc2c(c1)C(=O)c1ccccc1-2 please. 4

Same question for CCCCCCCCCCCC1=C(O)C(=O)C=C(O)C1=O please. -4

Same question for Nc1nc(-c2cccnc2)cc(-c2cc(-c3cccnc3)nc(N)n2)n1 please. 2

Same question for CCCCOC(=O)N[C@H]1CCc2cc(OC)c(OC)c(OC)c2-c2ccc(SC)c(=O)cc21 please. -3

Same question for Cc1ccc(S(=O)(=O)NCCSS(=O)(=O)c2ccc(C)cc2)cc1 please. -13
